Just for reference, paper PMC4142842 is where these values come from.

Target or test system: geranylgeranyl diphosphate synthase (GGDPS) (Homo sapiens, UniProt O95749)
Sequence (O95749 1-300): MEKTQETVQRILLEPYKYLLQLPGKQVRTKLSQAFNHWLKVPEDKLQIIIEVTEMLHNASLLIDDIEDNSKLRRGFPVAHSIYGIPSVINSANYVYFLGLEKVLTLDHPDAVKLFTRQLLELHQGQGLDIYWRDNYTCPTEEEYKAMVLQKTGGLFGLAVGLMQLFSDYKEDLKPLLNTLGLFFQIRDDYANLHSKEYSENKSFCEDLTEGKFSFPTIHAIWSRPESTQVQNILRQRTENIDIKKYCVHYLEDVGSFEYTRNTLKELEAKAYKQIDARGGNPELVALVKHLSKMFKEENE
pIC50: −log10 of the molar value.
Experimental endpoint: pIC50

Smiles code | Target or test system | Experimental endpoint | Numeric value
CC(C)=CCOC(CC=C(C)C)(P(=O)(O)O)P(=O)(O)O | geranylgeranyl diphosphate synthase (GGDPS) (Homo sapiens, UniProt O95749) | pIC50 | 5.32
